Data provenance: patent US20220363770A1

# target.desc: human CGRP receptor (human CRLR / human RAMP1 heterodimer) (human, UniProt Q16602 23-461; O60894 27-148)
# Sequence (Q16602 23-461 limits assumed, chain 1 of 2): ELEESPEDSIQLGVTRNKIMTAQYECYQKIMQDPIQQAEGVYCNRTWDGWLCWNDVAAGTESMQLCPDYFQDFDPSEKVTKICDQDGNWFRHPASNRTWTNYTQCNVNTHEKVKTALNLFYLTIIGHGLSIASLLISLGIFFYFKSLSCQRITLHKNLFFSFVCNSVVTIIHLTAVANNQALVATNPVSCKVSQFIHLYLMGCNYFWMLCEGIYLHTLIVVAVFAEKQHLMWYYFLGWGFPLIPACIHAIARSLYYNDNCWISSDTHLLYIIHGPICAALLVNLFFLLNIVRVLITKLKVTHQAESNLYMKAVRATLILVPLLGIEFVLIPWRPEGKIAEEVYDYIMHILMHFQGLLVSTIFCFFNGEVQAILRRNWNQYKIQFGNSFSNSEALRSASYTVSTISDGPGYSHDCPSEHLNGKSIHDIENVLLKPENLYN
# Sequence (O60894 27-148 limits assumed, chain 2 of 2): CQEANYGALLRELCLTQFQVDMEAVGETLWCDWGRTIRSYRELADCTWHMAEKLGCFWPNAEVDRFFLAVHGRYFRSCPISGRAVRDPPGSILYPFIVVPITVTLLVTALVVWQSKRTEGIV
# run.description: cell-based or functional assay
measure: Average IC50 (nM), cell-based cAMP assay, SK-N-MC cells, 3 nM human α-CGRP

{"binder": "anti-CGRP receptor variant antibody 02, bivalent monoclonal antibody (antibody, human IgG1, lambda, N297G, V domains shown) VH: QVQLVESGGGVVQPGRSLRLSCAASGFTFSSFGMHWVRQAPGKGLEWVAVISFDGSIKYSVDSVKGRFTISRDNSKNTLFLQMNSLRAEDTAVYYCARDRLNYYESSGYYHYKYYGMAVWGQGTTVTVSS VL: QSVLTQPPSVSAAPGQKVTISCSGSRSNIGIKAVSWYQQLPGTAPKLLIYDNNKRPSGIPDRFSGSKSGTSATLGITGLQTGDEADYYCGTWDSRLSAVVFGGGTKLTVLG", "quantity.unit": "nM", "measured.result": 0.12}
{"binder": "anti-CGRP receptor variant antibody 04, bivalent monoclonal antibody (antibody, human IgG1, lambda, N297G, V domains shown) VH: QVQLVESGGGVVQPGRSLRLSCAASGFTFSSFGMHWVRQAPGKGLEWVAVISFDGSIKYSVDSVKGRFTISRDNSKNTLFLQMNSLRAEDTAVYYCARDRLNYYRSFGYYGYHYYGMAVWGQGTTVTVSS VL: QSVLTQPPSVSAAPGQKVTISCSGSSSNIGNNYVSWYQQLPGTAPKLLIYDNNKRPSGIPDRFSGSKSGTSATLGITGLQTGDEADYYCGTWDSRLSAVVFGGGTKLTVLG", "quantity.unit": "nM", "measured.result": 0.17}
{"binder": "4E4.2 parental antibody, bivalent monoclonal antibody (antibody, human IgG1, lambda, N297G, V domains shown) VH: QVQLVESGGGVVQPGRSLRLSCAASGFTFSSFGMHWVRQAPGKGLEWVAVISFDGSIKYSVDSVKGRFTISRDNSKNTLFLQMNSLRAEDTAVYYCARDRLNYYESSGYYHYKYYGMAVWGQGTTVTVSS VL: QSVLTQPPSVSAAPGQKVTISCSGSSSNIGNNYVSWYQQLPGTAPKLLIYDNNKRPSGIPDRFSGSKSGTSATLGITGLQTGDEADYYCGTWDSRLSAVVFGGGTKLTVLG", "quantity.unit": "nM", "measured.result": 0.45}
